target: Phosphodiesterase 5A (Homo sapiens)
pKi: −log10 of the molar value.
OUTCOME MEASURE: pKi

- O/N=C/Nc1ccc(N2CCOCC2)c(Cl)c1: < 5.00

###

molecular target: Neuronal acetylcholine receptor subunit alpha-9 (Rattus norvegicus)
Sequence (P43144 whole entry): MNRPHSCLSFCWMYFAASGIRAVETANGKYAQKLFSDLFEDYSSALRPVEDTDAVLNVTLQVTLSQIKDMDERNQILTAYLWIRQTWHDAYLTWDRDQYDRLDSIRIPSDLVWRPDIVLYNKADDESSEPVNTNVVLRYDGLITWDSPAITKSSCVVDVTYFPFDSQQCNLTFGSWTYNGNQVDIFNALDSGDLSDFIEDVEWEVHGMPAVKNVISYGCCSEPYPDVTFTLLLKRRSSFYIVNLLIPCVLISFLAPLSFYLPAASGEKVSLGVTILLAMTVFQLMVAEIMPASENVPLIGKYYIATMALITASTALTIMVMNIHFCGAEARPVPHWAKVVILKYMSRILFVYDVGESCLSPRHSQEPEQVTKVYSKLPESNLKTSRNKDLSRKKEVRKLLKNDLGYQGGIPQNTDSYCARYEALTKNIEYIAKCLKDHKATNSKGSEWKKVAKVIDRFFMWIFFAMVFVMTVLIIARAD
OUTCOME MEASURE: Ki

- O/N=C/Nc1ccc(N2CCOCC2)c(Cl)c1: > 10 µM

###

target: Caspase-3 (Homo sapiens)
Sequence (P42574 29-175 limits assumed): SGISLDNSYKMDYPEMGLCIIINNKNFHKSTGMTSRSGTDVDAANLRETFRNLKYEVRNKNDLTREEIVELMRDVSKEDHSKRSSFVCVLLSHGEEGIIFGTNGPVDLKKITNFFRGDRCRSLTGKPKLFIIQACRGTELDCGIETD
Sequence (P42574 176-277 limits assumed): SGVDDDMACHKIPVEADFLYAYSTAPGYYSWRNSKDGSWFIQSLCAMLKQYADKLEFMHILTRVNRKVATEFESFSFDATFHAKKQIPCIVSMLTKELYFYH
OUTCOME MEASURE: Ki

• O/N=C/Nc1ccc(N2CCOCC2)c(Cl)c1 = > 10 µM

###

target: Gamma-aminobutyric acid receptor subunit alpha-1 (Rattus norvegicus, UniProt P62813)
Sequence (P62813 whole entry): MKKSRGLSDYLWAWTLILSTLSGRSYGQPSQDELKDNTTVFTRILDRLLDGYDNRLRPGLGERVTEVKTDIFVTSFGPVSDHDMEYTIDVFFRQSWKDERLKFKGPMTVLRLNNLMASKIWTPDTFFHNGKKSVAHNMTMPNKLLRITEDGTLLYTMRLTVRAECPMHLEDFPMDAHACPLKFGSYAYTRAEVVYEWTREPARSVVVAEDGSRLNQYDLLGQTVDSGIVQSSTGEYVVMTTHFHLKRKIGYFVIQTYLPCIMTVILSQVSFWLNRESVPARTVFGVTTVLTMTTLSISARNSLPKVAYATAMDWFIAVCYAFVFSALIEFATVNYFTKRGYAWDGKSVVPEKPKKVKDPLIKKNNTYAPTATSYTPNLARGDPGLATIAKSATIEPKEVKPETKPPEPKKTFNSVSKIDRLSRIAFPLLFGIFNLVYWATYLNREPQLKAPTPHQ
OUTCOME MEASURE: Ki

• O/N=C/Nc1ccc(N2CCOCC2)c(Cl)c1 = > 10 µM
